Value source: patent US20210002231A1

Molecular target: UniProt:Q9GZQ6
Sequence (Q9GZQ6 whole entry): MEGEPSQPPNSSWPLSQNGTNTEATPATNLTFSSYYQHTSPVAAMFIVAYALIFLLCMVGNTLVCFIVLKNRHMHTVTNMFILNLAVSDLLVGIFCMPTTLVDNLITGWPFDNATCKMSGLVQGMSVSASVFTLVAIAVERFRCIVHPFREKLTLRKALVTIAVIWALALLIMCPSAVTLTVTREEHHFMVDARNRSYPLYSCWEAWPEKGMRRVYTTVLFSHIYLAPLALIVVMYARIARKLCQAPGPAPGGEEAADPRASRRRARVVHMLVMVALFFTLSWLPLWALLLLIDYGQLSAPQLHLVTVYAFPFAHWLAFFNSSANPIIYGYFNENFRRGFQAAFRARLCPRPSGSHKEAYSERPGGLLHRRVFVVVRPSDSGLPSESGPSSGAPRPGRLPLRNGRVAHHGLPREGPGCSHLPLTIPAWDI
pIC50: −log10 of the molar value. Starred links: 1 amine or outer side, 2 acyl side, 3 side chain; linkers in the order of their positions; H or OH if unused. Non-standard residues stand in square brackets, D forms with d. Residues, ends and D or L forms follow the SMILES beside them. Nva(5-(4-Bn-piperidin-1-yl)) = N[C@@H](CCCN1CCC(Cc2ccccc2)CC1)C(=O)O; X5 = O=C1[C@@H](N[*:1])Cc2ccccc2CN1CCCC(=O)[*:2]; X1 = O=C1[C@@H](N[*:1])Cc2ccccc2CN1CCC(=O)[*:2]; Dmt = Cc1cc(O)cc(C)c1C[C@H](N)C(=O)O; NMeβAla = CN(CCC(=O)[*:2])[*:1]
ENDPOINT_LABEL: pIC50

INSERT INTO assay_data (compound, measured) VALUES
  ('Cc1cc(O)cc(C)c1C[C@H](N)C(=O)N[C@H](CCCNC(=N)N)C(=O)N[C@@H](Cc1ccccc1)C(=O)N(C)CCC(=O)N[C@@H](CCCN1CCC(Cc2ccccc2)CC1)C(=O)N[C@@H](Cc1ccccc1)C(N)=O [DP0013, H-Dmt-D-Arg-Phe-N(Me)-β-Ala-Bpa-Phe-NH2] (H-[Dmt][dR]F[NMeβAla][Nva(5-(4-Bn-piperidin-1-yl))]F-NH2)', '> 7.40'),
  ('Cc1cc(O)cc(C)c1C[C@H](N)C(=O)N[C@H](CCCNC(=N)N)C(=O)N[C@H]1Cc2ccccc2CN(CCC(=O)N[C@@H](CCCN2CCC(Cc3ccccc3)CC2)C(=O)N[C@@H](Cc2ccc(O)cc2)C(N)=O)C1=O [DP0004, H-Dmt-D-Arg-Aba-β-Ala-Bpa-Tyr-NH2] (H-[Dmt][dR][X1][Nva(5-(4-Bn-piperidin-1-yl))]Y-NH2)', '6.30 to 7.30'),
  ('Cc1cc(O)cc(C)c1C[C@H](N)C(=O)N[C@H](CCCNC(=N)N)C(=O)N[C@H]1Cc2ccccc2CN(CCC(=O)N[C@@H](CCCN2CCC(Cc3ccccc3)CC2)C(=O)N[C@H](C(N)=O)C(C)C)C1=O [DP0001, H-Dmt-D-Arg-Aba-β-Ala-Bpa-Val-NH2] (H-[Dmt][dR][X1][Nva(5-(4-Bn-piperidin-1-yl))]V-NH2)', '~6.30'),
  ('Cc1cc(O)cc(C)c1C[C@H](N)C(=O)N[C@H](CCCNC(=N)N)C(=O)N[C@H]1Cc2c(ccc3ccccc23)CN(CC(=O)N[C@@H](CCCN2CCC(Cc3ccccc3)CC2)C(=O)N[C@@H](Cc2ccccc2)C(N)=O)C1=O', '> 7.40'),
  ('Cc1cc(O)cc(C)c1C[C@H](N)C(=O)N[C@H](CCCNC(=N)N)C(=O)N[C@H]1Cc2ccccc2CN(CCCC(=O)N[C@@H](CCCN2CCC(Cc3ccccc3)CC2)C(=O)N[C@H](C(N)=O)C(C)C)C1=O [DP0020, H-Dmt-D-Arg-AbaGABA-Bpa-Val-NH2] (H-[Dmt][dR][X5][Nva(5-(4-Bn-piperidin-1-yl))]V-NH2)', '6.40 to 7.40'),
  ('Cc1cc(O)cc(C)c1C[C@H](N)C(=O)N[C@H](CCCNC(=N)N)C(=O)N[C@H]1Cc2c(ccc3ccccc23)CN(CC(=O)N[C@@H](CCCN2CCC(Cc3ccccc3)CC2)C(=O)N[C@H](C(N)=O)C(C)C)C1=O', '6.40 to 7.40'),
  ('Cc1cc(O)cc(C)c1C[C@H](N)C(=O)N[C@H](CCCNC(=N)N)C(=O)N[C@H]1Cc2ccccc2CN(CCC(=O)N[C@@H](CCCN2CCC(Cc3ccccc3)CC2)C(=O)N[C@@H](CC(C)C)C(N)=O)C1=O [DP0003, H-Dmt-D-Arg-Aba-β-Ala-Bpa-Leu-NH2] (H-[Dmt][dR][X1][Nva(5-(4-Bn-piperidin-1-yl))]L-NH2)', '6.30 to 7.30');
